System: KLHDC2 (Homo sapiens (Human))
Sequence (Q9Y2U9 whole entry): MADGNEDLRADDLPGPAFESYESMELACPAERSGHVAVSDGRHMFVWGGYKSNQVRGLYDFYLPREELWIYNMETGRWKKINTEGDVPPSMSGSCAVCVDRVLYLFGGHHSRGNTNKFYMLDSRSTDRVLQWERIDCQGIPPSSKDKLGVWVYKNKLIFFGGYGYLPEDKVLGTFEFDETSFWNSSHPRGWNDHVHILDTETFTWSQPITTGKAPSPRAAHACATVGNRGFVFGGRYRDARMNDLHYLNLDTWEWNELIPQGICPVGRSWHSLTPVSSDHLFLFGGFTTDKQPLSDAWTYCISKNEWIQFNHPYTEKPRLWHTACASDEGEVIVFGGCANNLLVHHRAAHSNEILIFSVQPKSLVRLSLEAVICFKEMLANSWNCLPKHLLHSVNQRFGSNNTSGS
Assay summary: Sypro orange thermal stability (thermal shift) assay
Assay type: binding
Test parameters: Table 1, 0.5 μM KLHDC2
Method: To identify small molecules that bind to KLHDC2 the Sypro orange thermal stability assay was utilized. […] The fluorescence of Sypro orange in each sample was measured on a Quantstudio 5 or a Quantstudio 6 at temperatures ranging from 23 to 75° C. at 0.05° C./second. Data reduction resulting in thermal stability (calculated using the Boltzmann and first derivative minima equations) was completed in the Thermo Scientific protein thermal shift software v1.4.
Measured attribute: ΔTm (° C.) 50 μM ligand (°C)
Express it in °C; write the number only.

Request: What value of measured ΔTm (° C.) 50 μM ligand is listed for `COc1ccc2cc(-c3nc(CC(=O)NCC(=O)O)cs3)ccc2c1` ?
Result: 3.9

Request: What value of measured ΔTm (° C.) 50 μM ligand is listed for `O=C(O)CNC(=O)Cc1csc(-c2cccc3ccccc23)n1` ?
Result: 3.7

Request: What value of measured ΔTm (° C.) 50 μM ligand is listed for `O=C(O)CNC(=O)Cc1csc(-c2ccc3ccccc3c2F)n1` ?
Result: 6.0

Request: What value of measured ΔTm (° C.) 50 μM ligand is listed for `O=C(O)CNC(=O)Cc1csc(-c2cccc3cccnc23)n1` ?
Result: 2.7

Request: What value of measured ΔTm (° C.) 50 μM ligand is listed for `COCOc1ccc(-c2nc(CC(=O)NCC(=O)O)cs2)c(Cl)c1` ?
Result: 3.52
